system: Danio rerio larvae (5 dpf); assay: difference in combined optomotor response to red, green and blue moving lines vs DMSO (percentage points); higher = stronger optomotor response than DMSO; settings: 10 µM; exposure time 6 h
Where a name gives a salt, the structure may show the parent alone.
Criterion: difference meeting or surpassing -1. Met: true (1). Not met: false (0).

Molecule | Measurement target | Category
C#Cc1cccc(Nc2ncnc3cc(OCCOC)c(OCCOC)cc23)c1 [Erlotinib] | Danio rerio larvae (5 dpf) | false (0)
OC(CNCC(O)C1CCc2cc(F)ccc2O1)C1CCc2cc(F)ccc2O1 (stereo not drawn) [Nebivolol (hydrochloride)] | Danio rerio larvae (5 dpf) | false (0)
CO/N=C1\CN(c2nc3c(cc2F)c(=O)c(C(=O)O)cn3C2CC2)CC1CN (stereo not drawn) [Gemifloxacin (mesylate)] | Danio rerio larvae (5 dpf) | true (1)
c1ccc2c(CC3=NCCN3)cccc2c1 [Naphazoline (hydrochloride)] | Danio rerio larvae (5 dpf) | false (0)
CN(C)[C@@H]1C(O)=C(C(N)=O)C(=O)[C@@]2(O)C(O)=C3C(=O)c4c(O)cccc4[C@@](C)(O)[C@H]3[C@H](O)[C@@H]12 [Oxytetracycline] | Danio rerio larvae (5 dpf) | true (1)
CCCC(=O)O[C@]1(C(=O)COC(C)=O)CC[C@H]2[C@@H]3C[C@H](F)C4=CC(=O)C=C[C@]4(C)[C@@]3(F)[C@@H](O)C[C@@]21C [Difluprednate] | Danio rerio larvae (5 dpf) | false (0)
OCc1cc(C(O)CNCCCCCCOCCCCc2ccccc2)ccc1O (stereo not drawn) [Salmeterol (xinafoate)] | Danio rerio larvae (5 dpf) | true (1)
COc1ccc(CC(C)NCC(O)c2ccc(O)c(NC=O)c2)cc1 (stereo not drawn) [Formoterol (hemifumarate hydrate)] | Danio rerio larvae (5 dpf) | true (1)

* * *

tested on: Danio rerio larvae (5 dpf); test: difference in activity during first hour vs DMSO (percentage points); higher = more activity than DMSO; details: 10 µM; exposure time 6 h
Where a name gives a salt, the structure may show the parent alone.
Criterion: difference in activity during first hour meeting or surpassing 4. Met: true (1). Not met: false (0).

Compound | Category
CC=CC(=O)N(CC)c1ccccc1C [Crotamiton] | false (0)
O=C1CN(/N=C/c2ccc([N+](=O)[O-])o2)C(=O)N1 [Nitrofurantoin] | true (1)
CCc1c(C)[nH]c2c1C(=O)C(CN1CCOCC1)CC2 (stereo not drawn) [Molindone (hydrochloride)] | false (0)
COc1ccc(-c2ccc3cc(C(=O)O)ccc3c2)cc1C12CC3CC(CC(C3)C1)C2 [Adapalene] | false (0)
CO[C@H]1/C=C/O[C@@]2(C)Oc3c(C)c(O)c4c(O)c(c(/C=N/N5CCN(C)CC5)c(O)c4c3C2=O)NC(=O)/C(C)=C\C=C\[C@H](C)[C@H](O)[C@@H](C)[C@@H](O)[C@@H](C)[C@H](OC(C)=O)[C@@H]1C [Rifampicin] | true (1)
CC(=O)O[C@]1(C(C)=O)CC[C@H]2[C@@H]3CCC4=CC(=O)CCC4=C3[C@@H](c3ccc(N(C)C)cc3)C[C@@]21C [Ulipristal Acetate] | false (0)
CC(c1cc2ccccc2s1)N(O)C(N)=O (stereo not drawn) [Zileuton] | false (0)

* * *

tested on: Danio rerio larvae (5 dpf); assay: difference in activity during first hour vs DMSO (percentage points); higher = more activity than DMSO; details: 10 µM; exposure time 6 h
Structures can show the parent of a compound that is named as a salt.
Criterion: difference in activity during first hour meeting or surpassing 4. Met: Criterion met. Not met: Criterion not met.

Compound | Category
N[C@@H](Cc1cc(I)c(Oc2cc(I)c(O)c(I)c2)c(I)c1)C(=O)O | Criterion met
CC=CC1=C(C(=O)O)N2C(=O)[C@@H](NC(=O)[C@H](N)c3ccc(O)cc3)[C@H]2SC1 | Criterion not met
CC[C@H]1OC(=O)[C@H](C)[C@@H](O[C@H]2C[C@@](C)(OC)[C@@H](O)[C@H](C)O2)[C@H](C)[C@@H](O[C@@H]2O[C@H](C)C[C@H](N(C)C)[C@H]2O)[C@](C)(O)C[C@@H](C)C(=O)[C@H](C)[C@@H](O)[C@]1(C)O | Criterion met
CO/N=C(\C(=O)N[C@@H]1C(=O)N2C(C(=O)O)=C(COC(C)=O)CS[C@H]12)c1csc(N)n1 [Cefotaxime (sodium salt)] | Criterion met
CC(=O)OCC(=O)[C@@]12N=C(C)O[C@@H]1C[C@H]1[C@@H]3CCC4=CC(=O)C=C[C@]4(C)[C@H]3[C@@H](O)C[C@@]12C | Criterion not met
CCOC(=O)C1=C(C)NC(C)=C(C(=O)OC)C1c1cccc(Cl)c1Cl (racemic) [(±)-Felodipine] | Criterion not met
C[C@H](CCC(=O)O)[C@H]1CC[C@H]2[C@@H]3CC[C@@H]4C[C@H](O)CC[C@]4(C)[C@H]3C[C@H](O)[C@]12C | Criterion met
O=C1NC(c2ccccc2)(c2ccccc2)C(=O)N1COP(=O)(O)O [Fosphenytoin (sodium salt)] | Criterion not met
CCC(=O)O[C@]1(C(=O)CCl)[C@@H](C)C[C@H]2[C@@H]3CCC4=CC(=O)C=C[C@]4(C)[C@@]3(F)[C@@H](O)C[C@@]21C [Clobetasol Propionate] | Criterion met
CNC(=O)c1cnn(-c2nc(N)c3ncn([C@@H]4O[C@H](CO)[C@@H](O)[C@H]4O)c3n2)c1 | Criterion met
O=C1[C@H](CC[C@H](O)c2ccc(F)cc2)[C@@H](c2ccc(O)cc2)N1c1ccc(F)cc1 | Criterion not met
Cc1c2oc3c(C)ccc(C(=O)N[C@@H]4C(=O)N[C@H](C(C)C)C(=O)N5CCC[C@H]5C(=O)N(C)CC(=O)N(C)[C@@H](C(C)C)C(=O)O[C@@H]4C)c3nc-2c(C(=O)N[C@@H]2C(=O)N[C@H](C(C)C)C(=O)N3CCC[C@H]3C(=O)N(C)CC(=O)N(C)[C@@H](C(C)C)C(=O)O[C@@H]2C)c(N)c1=O | Criterion met
COC(=O)c1ccc2c(c1)NC(=O)/C2=C(\Nc1ccc(N(C)C(=O)CN2CCN(C)CC2)cc1)c1ccccc1 | Criterion not met
